# protocolNotes: Pregabalin pharmacokinetics following administration of oral tablet formulations in monkeys (Example 14)
# Format: in vivo, cynomolgus monkeys
# conditionInfo: male, cynomolgus monkey, whole blood, LYRICA capsules, 150 mg-eq PG (52.4 mg-eq PG/kg), read-out: Tmax, pregabalin in blood, mean (SD)
valueType: Tmax

[[record]]
smilescode = "CC(C)C[C@H](CN)CC(=O)O"
valuetype = "Tmax"
observedmeasurement = "3 h"


###

# protocolNotes: Pregabalin pharmacokinetics following intracolonic administration in monkeys (Example 12)
# Assay type: in vivo, cynomologus monkeys
# conditionInfo: male, monkey, whole blood, 10 mg/kg, 10 mg-eq PG/kg, read-out: Cmax, pregabalin in blood, mean (SD)
valueType: Cmax

[[record]]
smilescode = "CC(C)C[C@H](CN)CC(=O)O"
valuetype = "Cmax"
observedmeasurement = "240 ng/mL"


###

# protocolNotes: Pregabalin pharmacokinetics following administration of oral tablet formulations in monkeys (Example 14)
# Format: in vivo, cynomolgus monkeys
# conditionInfo: male, cynomolgus monkey, whole blood, LYRICA capsules, 150 mg-eq PG (52.4 mg-eq PG/kg), read-out: AUClast, pregabalin in blood, mean (SD)
valueType: AUC(0-t) (µg·h/mL)

[[record]]
smilescode = "CC(C)C[C@H](CN)CC(=O)O"
observedmeasurement = 188


###

# protocolNotes: Pregabalin pharmacokinetics following administration of oral tablet formulations in monkeys (Example 14)
# Assay type: in vivo, cynomolgus monkeys
# conditionInfo: male, cynomolgus monkey, whole blood, LYRICA capsules, 150 mg-eq PG (52.4 mg-eq PG/kg), read-out: Cmax, pregabalin in blood, mean (SD)
valueType: Cmax (ng/mL)

[[record]]
smilescode = "CC(C)C[C@H](CN)CC(=O)O"
valuetype = "Cmax"
observedmeasurement = 21900


###

# protocolNotes: Pregabalin pharmacokinetics following intracolonic administration in monkeys (Example 12)
# Format: in vivo, cynomologus monkeys
# conditionInfo: male, monkey, whole blood, other: intracolonic, 8 mg/kg, 10 mg-eq PG/kg, read-out: F, bioavailability of pregabalin relative to IV pregabalin at 8 mg/kg, mean (SD)
valueType: bioavailability (%)

[[record]]
smilescode = "CC(C)C[C@H](CN)CC(=O)O"
valuetype = "bioavailability"
unitofmeasurement = "%"
observedmeasurement = 2.7


###

# protocolNotes: Pregabalin pharmacokinetics following intracolonic administration in monkeys (Example 12)
# Type: in vivo, cynomologus monkeys
# conditionInfo: male, monkey, whole blood, 10 mg/kg, 10 mg-eq PG/kg, read-out: AUCinf, pregabalin in blood, mean (SD)
valueType: AUC(0-inf)

[[record]]
smilescode = "CC(C)C[C@H](CN)CC(=O)O"
valuetype = "AUC(0-inf)"
observedmeasurement = "3100 ng·h/mL"

